Examples of substances with documented remaining at 0.5 h, 100 ng/ml follow.
- PROCEDURE_TEXT: in vitro stability in 10% rat plasma, LC-MS/MS
- Type: in vitro ADME
- CONDITION_INFO: room temperature, 100 ng/ml, 0.5 h

SUBSTANCE: Ac-WVTHRLAGLLSQSGGVVRKNFVPTDVGPFAF-NH2 [compound 37]
remaining at 0.5 h, 100 ng/ml: 62.7%
--
SUBSTANCE: Ac-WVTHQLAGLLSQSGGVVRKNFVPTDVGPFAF-NH2 [compound 39]
remaining at 0.5 h, 100 ng/ml: 83.8%

* * *

- PROCEDURE_TEXT: in vitro stability in 10% human plasma, LC-MS/MS
- Type: in vitro ADME
- CONDITION_INFO: room temperature, read-out: time at which 50% depleted / detectable
- Experimental: Consequently, the stability of select, non-PEGylated analogs was evaluated in vitro in the presence of 10% rat or human plasma. Briefly, samples of each peptide were diluted to 100 ng/ml into PBS containing 10% of rat or human plasma. Each sample was then incubated at room temperature and analyzed by LC-MS/MS to quantitate the intact peptide remaining at select time points over 6 hours.

SUBSTANCE: Ac-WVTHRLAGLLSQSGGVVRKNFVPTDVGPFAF-NH2 [SEQ ID NO:37]
half-life at 100 ng/ml: < 30 min

* * *

- PROCEDURE_TEXT: in vitro stability in 10% rat plasma, LC-MS/MS
- Type: in vitro ADME
- CONDITION_INFO: room temperature, read-out: time at which 50% depleted
MEASUREMENT_LABEL: half-life at 100 ng/ml

SUBSTANCE: Ac-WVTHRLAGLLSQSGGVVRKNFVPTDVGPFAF-NH2 [SEQ ID NO:37]
RESULT: ~45 min

* * *

- TARGET_UNDER_TEST: CGRP1 receptor (Homo sapiens, UniProt O60894+Q16602)
- Construct: SK-N-MC cells express CRLR and RAMP1, which form CGRP1 receptor; endogenous in cells; host or cells: SK-N-MC human neuroblastoma cells
- Sequence (Q16602 23-461): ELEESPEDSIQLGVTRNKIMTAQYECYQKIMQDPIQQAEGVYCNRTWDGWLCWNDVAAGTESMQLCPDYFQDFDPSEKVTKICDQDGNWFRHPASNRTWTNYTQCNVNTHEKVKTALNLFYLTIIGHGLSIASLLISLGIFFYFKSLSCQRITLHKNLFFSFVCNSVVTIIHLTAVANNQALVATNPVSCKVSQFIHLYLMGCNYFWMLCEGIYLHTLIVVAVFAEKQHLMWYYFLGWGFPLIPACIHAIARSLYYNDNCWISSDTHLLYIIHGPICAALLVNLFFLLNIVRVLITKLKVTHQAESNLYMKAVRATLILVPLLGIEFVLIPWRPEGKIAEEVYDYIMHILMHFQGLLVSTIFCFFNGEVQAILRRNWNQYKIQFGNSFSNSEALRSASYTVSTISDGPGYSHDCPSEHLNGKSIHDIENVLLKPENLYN
- Sequence (O60894 27-148): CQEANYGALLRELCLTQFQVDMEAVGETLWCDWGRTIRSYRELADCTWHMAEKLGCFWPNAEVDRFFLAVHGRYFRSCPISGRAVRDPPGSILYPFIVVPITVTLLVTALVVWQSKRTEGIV
- PROCEDURE_TEXT: in vitro CGRP1 receptor mediated cAMP assay in SK-N-MC cells
- Assay type: cell-based
- CONDITION_INFO: Table 2C; unconjugated peptide; read-out: Peptide IC50
MEASUREMENT_LABEL: IC50 (nM)

SUBSTANCE: Ac-WVTHRLAGLLSRSGGVVRKNFVPTDVGSKAF-NH2 [compound 915]
RECORDED_NUMBER: 1.15

SUBSTANCE: Ac-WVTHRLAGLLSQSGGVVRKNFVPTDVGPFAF-NH2 [compound 856]
RECORDED_NUMBER: 0.47

SUBSTANCE: Ac-WVTHRLAGLLSRPGGVVRKNFVPTDVGPFAF-NH2 [compound 860]
RECORDED_NUMBER: 1.42

SUBSTANCE: Ac-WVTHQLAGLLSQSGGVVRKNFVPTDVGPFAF-NH2 [compound 857]
RECORDED_NUMBER: 0.53

* * *

- TARGET_UNDER_TEST: CGRP1 receptor (Homo sapiens, UniProt O60894+Q16602)
- Construct: SK-N-MC cells express CRLR and RAMP1, which form CGRP1 receptor; endogenous in cells; host or cells: SK-N-MC human neuroblastoma cells
- PROCEDURE_TEXT: in vitro CGRP1 receptor mediated cAMP assay in SK-N-MC cells
- Format: cell-based
- CONDITION_INFO: Table 7; R11 and/or R18 stability analogs, with or without 20 kDa PEG; read-out: IC50

SUBSTANCE: Ac-WVTHRLAGLLSQSGGVVRCNFVPTDVGPFAF-NH2 [compound 35]
IC50 [nM]: 0.37

* * *

- TARGET_UNDER_TEST: CGRP1 receptor (Homo sapiens, UniProt O60894+Q16602)
- Construct: SK-N-MC cells express CRLR and RAMP1, which form CGRP1 receptor; endogenous in cells; host or cells: SK-N-MC human neuroblastoma cells
- PROCEDURE_TEXT: in vitro CGRP1 receptor mediated cAMP assay in SK-N-MC cells
- Assay type: cell-based
- CONDITION_INFO: cAMP assay
PEG = not defined here
MEASUREMENT_LABEL: loss in antagonist activity on PEGylation relative to the unconjugated parent peptide

SUBSTANCE: SEQ ID NO:16 (Ac-WVTHRLAGLLSRSGGVVRK(PEG)NFVPTDVGPFAF-NH2; reading uncertain)
RESULT: three

SUBSTANCE: SEQ ID NO:15 (Ac-WVTHRLAGLLSRSGGVVRK(PEG)NFVPTDVGPFAF-NH2; reading uncertain)
RESULT: three

* * *

Examples of substances with documented remaining at 0.5 h, 100 ng/ml follow.
- PROCEDURE_TEXT: in vitro stability in 10% human plasma, LC-MS/MS
- Assay type: in vitro ADME
- CONDITION_INFO: room temperature, 100 ng/ml, 0.5 h

SUBSTANCE: Ac-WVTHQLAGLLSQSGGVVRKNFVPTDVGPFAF-NH2 [SEQ ID NO: 39]
remaining at 0.5 h, 100 ng/ml: 54%
--
SUBSTANCE: Ac-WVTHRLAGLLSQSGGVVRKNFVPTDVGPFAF-NH2 [SEQ ID NO: 37]
remaining at 0.5 h, 100 ng/ml: 20.6%

* * *

Examples of substances with documented Tmax follow.
- PROCEDURE_TEXT: rat pharmacokinetic studies
- CONDITION_INFO: rat, SC, 2 mg/kg; mean, n = 3
PEG = not defined here
MEASUREMENT_LABEL: Tmax (h)

SUBSTANCE: SEQ ID NO: 40: double glutamine analog PEGylated through amine linkage (Ac-WVTHQLAGLLSQSGGVVRK(PEG)NFVPTDVGPFAF-NH2; reading uncertain)
RECORDED_NUMBER: 4.00

SUBSTANCE: SEQ ID NO: 15: 20 kDa PEG conjugate of SEQ ID NO:7 (reductive alkylation) (Ac-WVTHRLAGLLSRSGGVVRK(20 kDa PEG)NFVPTDVGPFAF-NH2)
RECORDED_NUMBER: 2.00

SUBSTANCE: SEQ ID NO: 32: PEGylated R11Cit, R18Cit analog (product of SEQ ID NO:31) (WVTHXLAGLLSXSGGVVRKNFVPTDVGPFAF; PEGylated; citrulline at 11 and 18; CGRP peptide; MOD_RES (1)..(1): …ON; MISC_FEATURE (5)..(5): xaa=citrulline; MISC_FEATURE (12)..(12): xaa=citrulline; MISC_FEATURE (19)..(19): PEGylated; MOD_RES (31)..(31): AMIDATION)
RECORDED_NUMBER: 4.00

SUBSTANCE: SEQ ID NO: 26: PEGylated double homoarginine analog (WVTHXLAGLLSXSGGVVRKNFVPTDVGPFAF; PEGylated; homoarginine residues; CGRP peptide; MOD_RES (1)..(1): …ON; MISC_FEATURE (5)..(5): xaa=homoarginine; MISC_FEATURE (12)..(12): xaa=homoarginine; MISC_FEATURE (19)..(19): PEGylated; MOD_RES (31)..(31): AMIDATION)
RECORDED_NUMBER: 2.00

* * *

- TARGET_UNDER_TEST: CGRP1 receptor (human neuroblastoma cell (SK-N-MC) membrane) (Homo sapiens, UniProt O60894+Q16602)
- Construct: human neuroblastoma cell (SK-N-MC) membrane suspension; purchased PerkinElmer; host or cells: SK-N-MC human neuroblastoma cell membranes (endogenous receptor)
- Sequence (Q16602 23-461): as the sequence (Q16602 23-461) above
- Sequence (O60894 27-148): as the sequence (O60894 27-148) above
- PROCEDURE_TEXT: CGRP1 binding assay (125I-hαCGRP displacement)
- CONDITION_INFO: Table 3B
pKi: −log10 of the molar value.
Examples of compounds with documented pKi follow.
MEASUREMENT_LABEL: pKi

ENTRY_SMILES: CC(C)[C@H](NC(=O)[C@@H](N)Cc1ccccc1)C(=O)N1CCC[C@H]1C(=O)N[C@H](C(=O)N[C@@H](CC(=O)O)C(=O)N[C@@H](C(=O)NCC(=O)N1CCC[C@H]1C(=O)N[C@@H](Cc1ccccc1)C(=O)N[C@@H](C)C(=O)N[C@@H](Cc1ccccc1)C(N)=O)C(C)C)[C@@H](C)O
MEASUREMENT_LABEL: pKi
RESULT: < 6.00
--
ENTRY_SMILES: CC(C)[C@H](NC(=O)[C@H](CC(=O)O)NC(=O)[C@@H](NC(=O)[C@@H]1CCCN1C(=O)[C@@H](NC(=O)[C@@H](N)Cc1ccccc1)C(C)C)[C@@H](C)O)C(=O)NCC(=O)N1CCC[C@H]1C(=O)N[C@@H](Cc1ccccc1)C(=O)N[C@@H](C)C(=O)N[C@H](Cc1ccccc1)C(N)=O
MEASUREMENT_LABEL: pKi
RESULT: < 6.00
--
ENTRY_SMILES: CC(C)[C@H](NC(=O)[C@H](CC(=O)O)NC(=O)[C@@H](NC(=O)[C@@H]1CCCN1C(=O)[C@@H](NC(=O)[C@@H](N)Cc1ccccc1)C(C)C)[C@@H](C)O)C(=O)NCC(=O)N1CCC[C@H]1C(=O)N[C@H](Cc1ccccc1)C(=O)N[C@@H](C)C(=O)N[C@@H](Cc1ccccc1)C(N)=O
MEASUREMENT_LABEL: pKi
RESULT: < 6.00
--
ENTRY_SMILES: CC(C)[C@H](NC(=O)[C@H](CC(=O)O)NC(=O)[C@@H](NC(=O)[C@@H]1CCCN1C(=O)[C@@H](NC(=O)[C@@H](N)Cc1ccccc1)C(C)C)[C@@H](C)O)C(=O)NCC(=O)N1CCC[C@H]1C(=O)N[C@@H](Cc1ccccc1)C(=O)N[C@H](C)C(=O)N[C@@H](Cc1ccccc1)C(N)=O
MEASUREMENT_LABEL: pKi
RESULT: < 6.00
--
ENTRY_SMILES: CC(C)[C@H](NC(=O)[C@@H](CC(=O)O)NC(=O)[C@@H](NC(=O)[C@@H]1CCCN1C(=O)[C@@H](NC(=O)[C@@H](N)Cc1ccccc1)C(C)C)[C@@H](C)O)C(=O)NCC(=O)N1CCC[C@H]1C(=O)N[C@@H](Cc1ccccc1)C(=O)N[C@@H](C)C(=O)N[C@@H](Cc1ccccc1)C(N)=O
MEASUREMENT_LABEL: pKi
RESULT: < 6.00
--
ENTRY_SMILES: CC(C)[C@H](NC(=O)[C@H](CC(=O)O)NC(=O)[C@@H](NC(=O)[C@@H]1CCCN1C(=O)[C@@H](NC(=O)[C@@H](N)Cc1ccccc1)C(C)C)[C@@H](C)O)C(=O)NCC(=O)N1CCC[C@@H]1C(=O)N[C@@H](Cc1ccccc1)C(=O)N[C@@H](C)C(=O)N[C@@H](Cc1ccccc1)C(N)=O
MEASUREMENT_LABEL: pKi
RESULT: < 6.00
